Target: T1, B-cat-Halo (beta-catenin HaloTag NanoBRET construct expressed in HEK293 cells) (UniProt P35222 1-781)
T1 sequence (looked up): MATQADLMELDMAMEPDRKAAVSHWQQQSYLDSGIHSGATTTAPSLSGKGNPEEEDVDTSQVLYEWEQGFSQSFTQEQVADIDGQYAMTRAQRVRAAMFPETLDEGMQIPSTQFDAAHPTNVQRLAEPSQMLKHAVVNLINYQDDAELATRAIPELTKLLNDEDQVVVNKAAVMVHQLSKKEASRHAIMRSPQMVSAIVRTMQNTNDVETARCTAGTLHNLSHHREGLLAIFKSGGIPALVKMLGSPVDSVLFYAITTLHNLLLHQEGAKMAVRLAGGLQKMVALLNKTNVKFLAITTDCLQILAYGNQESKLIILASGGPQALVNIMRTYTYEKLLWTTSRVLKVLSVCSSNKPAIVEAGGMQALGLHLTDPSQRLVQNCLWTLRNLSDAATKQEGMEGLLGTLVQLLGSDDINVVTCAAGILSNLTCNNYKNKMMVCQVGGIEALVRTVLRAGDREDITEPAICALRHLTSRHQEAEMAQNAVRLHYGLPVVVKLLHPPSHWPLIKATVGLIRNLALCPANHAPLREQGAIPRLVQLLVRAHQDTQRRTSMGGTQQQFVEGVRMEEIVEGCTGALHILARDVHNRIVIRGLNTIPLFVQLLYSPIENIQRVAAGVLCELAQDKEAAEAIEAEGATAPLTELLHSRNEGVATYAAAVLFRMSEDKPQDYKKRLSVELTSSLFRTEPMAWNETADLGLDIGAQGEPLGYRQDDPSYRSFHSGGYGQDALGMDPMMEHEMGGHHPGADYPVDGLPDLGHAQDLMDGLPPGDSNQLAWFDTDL
Assay: cell-based or functional assay
Starred links: 1 amine or outer side, 2 acyl side, 3 side chain; linkers in the order of their positions; H or OH if unused. Positions of bridges follow the written chain, without caps; N, C: chain ends. Non-standard residues stand in square brackets, D forms with d. Primed or numbered codes have the meaning given here. *: point of attachment. B5(5) = 2,2-bis(4-pentenyl)glycine, 2-amino-2-(pent-4-en-1-yl)hept-6-enoic acid (stitching residue), C=CCCCC(CCCC=C)(N[*:1])C(=O)[*:2]; PyrS2 = (S)-3-amino-1-((pent-4-en-1-yloxy)carbonyl)pyrrolidine-3-carboxylic acid, C=CCCCOC(=O)N1CC[C@@](N[*:1])(C(=O)[*:2])C1; B5(12) = 2-amino-2-(pent-4-en-1-yl)hept-6-enoic acid (two olefin side chains), C=CCCCC(CCCC=C)(N[*:1])C(=O)[*:2]; Phe(3-COOH) = N[C@@H](Cc1cccc(C(=O)O)c1)C(=O)O; Phe(2-Cl) = N[C@@H](Cc1ccccc1Cl)C(=O)O; Bta = N[C@@H](Cc1csc2ccccc12)C(=O)O; αAllylPro = C=CC[C@@]1(C(=O)O)CCCN1; tBuAla = CC(C)(C)C[C@H](N)C(=O)O; 3Thi = N[C@@H](Cc1ccsc1)C(=O)O; Cba = N[C@@H](CC1CCC1)C(=O)O; PyrS2(4) = not defined here; Prolinol = OC[C@@H]1CCCN1*
Reported Metric: NanoBRET Abs IC50 (µM)
Give bare numbers, in µM.

Example results:
# Binder, NanoBRET Abs IC50 (µM)
records = [
    ("Ac-[αAllylPro]D[tBuAla][B5(12)]D[Phe(3-COOH)]AAFL[PyrS2(4)][Phe(2-Cl)][Bta]N-NH2 (staple 1-4, 4-11; not fully specified; printed as Ac-PL3-Asp-Npg-B5-Asp-3COOHF-Ala-Ala-Phe-Leu-PyrS2-2C1F-BztA-Asn-NH2; reading uncertain) [I-1904]", 4.2),
    ("Ac-[αAllylPro]D[tBuAla][B5(5)]D[Phe(3-COOH)]QAFL[PyrS2(4)][3Thi][Bta]F-NH2 (staple 1-4, 4-11; not fully specified; printed as Ac-PL3-Asp-Npg-B5-Asp-3COOHF-Gln-Ala-Phe-Leu-PyrS2-3Thi-BztA-Phe-NH2; reading uncertain) [I-1912]", 11.5),
    ("Ac-[αAllylPro]D[tBuAla][B5(5)]D[Phe(3-COOH)]SAFL[PyrS2(4)][Phe(2-Cl)][Bta]S-NH2 (staple 1-4, 4-11; not fully specified; printed as Ac-PL3-Asp-Npg-B5-Asp-3COOHF-Ser-Ala-Phe-Leu-PyrS2-2C1F-BztA-Ser-NH2; reading uncertain) [I-1902]", 7.7),
    ("Ac-[αAllylPro]D[tBuAla][B5(12)]D[Phe(3-COOH)]AAFS[PyrS2(4)][Phe(2-Cl)][Bta]S-NH2 (staple 1-4, 4-11; not fully specified; printed as Ac-PL3-Asp-Npg-B5-Asp-3COOHF-Ala-Ala-Phe-Ser-PyrS2-2C1F-BztA-Ser-NH2; reading uncertain) [I-1903]", 6.4),
    ("Ac-[αAllylPro]D[tBuAla][B5(5)]D[Phe(3-COOH)]AAFL[PyrS2][Cba][Bta]S-NH2 (staple 1-4, 4-11; not fully specified; printed as Ac-PL3-Asp-Npg-B5-Asp-3COOHF-Ala-Ala-Phe-Leu-PyrS2-Cba-BztA-Ser-NH2) [I-1898]", 10.9),
]

Could you now look at the following binder, please?
Problem: # NanoBRET Abs IC50 lookup, item Ac-[αAllylPro]D[tBuAla][B5(12)]D[Phe(3-COOH)]AAFL[PyrS2(4)][Phe(2-Cl)][Bta]S-Prolinol (staple 1-4, 4-11; not fully specified; printed as Ac-PL3-Asp-Npg-B5-Asp-3COOHF-Ala-Ala-Phe-Leu-PyrS2-2C1F-BztA-Ser-Prool; reading uncertain) [I-1906]
Solution: 15.5
